glycan array binding signal (z-score) listing for selected binders.
molecular target: Gal3S(b1-4)Glc6S; test: glycan array binding signal (z-score within array); higher = stronger binding; conditions: glycan notation: IUPAC condensed, linker removed
This is one part of a sample in which the strongest signals are shown more often than they occur.
# answer = number (no unit)

Gal 1 (Mus musculus), P16045 (protein) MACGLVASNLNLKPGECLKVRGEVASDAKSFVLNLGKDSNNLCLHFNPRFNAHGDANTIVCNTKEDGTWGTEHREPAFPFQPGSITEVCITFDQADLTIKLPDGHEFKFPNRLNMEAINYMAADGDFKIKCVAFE	0.672
Flo5 (Saccharomyces cerevisiae), P38894 (protein) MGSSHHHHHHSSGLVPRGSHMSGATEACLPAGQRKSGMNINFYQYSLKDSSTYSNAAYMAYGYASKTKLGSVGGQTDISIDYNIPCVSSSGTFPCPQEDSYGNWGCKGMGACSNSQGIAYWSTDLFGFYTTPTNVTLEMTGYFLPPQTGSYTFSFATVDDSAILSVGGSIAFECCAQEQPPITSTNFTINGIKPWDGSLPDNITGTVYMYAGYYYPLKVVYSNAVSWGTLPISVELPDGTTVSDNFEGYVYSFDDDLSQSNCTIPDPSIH	8.31
SP15308C-bot-338-23-338 (Bacteroides ovatus) (protein) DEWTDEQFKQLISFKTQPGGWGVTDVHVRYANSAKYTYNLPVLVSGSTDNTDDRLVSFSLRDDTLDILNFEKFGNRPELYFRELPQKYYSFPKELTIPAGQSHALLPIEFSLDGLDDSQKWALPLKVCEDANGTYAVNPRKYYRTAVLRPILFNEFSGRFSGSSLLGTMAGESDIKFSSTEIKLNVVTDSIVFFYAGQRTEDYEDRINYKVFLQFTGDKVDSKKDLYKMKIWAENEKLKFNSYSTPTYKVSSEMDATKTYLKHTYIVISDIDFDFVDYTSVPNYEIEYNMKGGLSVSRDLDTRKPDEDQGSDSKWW	-0.188
FBG5 (Homo sapiens), Q8NI29 (protein) MGASVSRGRAARVPAPEPEPEEALDLSQLPPELLLVVLSHVPPRTLLGRCRQVCRGWRALVDGQALWLLILARDHGATGRALLHLARSCQSPARNARPCPLGRFCARRPIGRNLIRNPCGQEGLRKWMVQHGGDGWVVEENRTTVPGAPSQTCFVTSFSWCCKKQVLDLEEEGLWPELLDSGRIEICVSDWWGARHDSGCMYRLLVQLLDANQTVLDKFSAVPDPIPQWNNNACLHVTHVFSNIKMGVRFVSFEHRGQDTQFWAGHYGARVTNSSVIVRVRLS	0.206
Gal-9-hFc (Mus musculus), O08573-2 (protein) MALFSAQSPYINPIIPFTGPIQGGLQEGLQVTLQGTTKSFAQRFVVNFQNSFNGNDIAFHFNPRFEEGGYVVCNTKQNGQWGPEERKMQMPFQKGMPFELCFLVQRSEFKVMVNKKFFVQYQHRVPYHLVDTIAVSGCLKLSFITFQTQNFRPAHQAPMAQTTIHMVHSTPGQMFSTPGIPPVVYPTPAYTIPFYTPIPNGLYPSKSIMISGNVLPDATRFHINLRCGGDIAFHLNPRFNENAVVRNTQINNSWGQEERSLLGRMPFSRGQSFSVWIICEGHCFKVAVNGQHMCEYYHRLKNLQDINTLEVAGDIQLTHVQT	4.35
ERGIC1-EDTA (Homo sapiens), Q969X5 (protein) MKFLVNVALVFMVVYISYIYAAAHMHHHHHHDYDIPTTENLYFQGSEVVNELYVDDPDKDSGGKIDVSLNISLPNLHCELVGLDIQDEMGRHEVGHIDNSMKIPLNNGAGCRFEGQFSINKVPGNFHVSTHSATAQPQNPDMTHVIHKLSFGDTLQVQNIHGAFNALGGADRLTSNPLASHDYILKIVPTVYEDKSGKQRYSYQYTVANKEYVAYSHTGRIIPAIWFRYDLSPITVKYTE	0.151
Sebin2 (Coprinopsis cinerea), A8PE78 (protein) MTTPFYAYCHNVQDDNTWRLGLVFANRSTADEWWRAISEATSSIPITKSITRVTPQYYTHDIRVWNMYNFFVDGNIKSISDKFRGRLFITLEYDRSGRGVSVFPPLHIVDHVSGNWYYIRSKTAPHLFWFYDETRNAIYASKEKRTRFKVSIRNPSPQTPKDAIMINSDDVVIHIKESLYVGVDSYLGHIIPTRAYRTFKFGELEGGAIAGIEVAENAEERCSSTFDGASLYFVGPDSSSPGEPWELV	0.515
LlpA1 (Pseudomonas fluorescens), Q4KHC3 (protein) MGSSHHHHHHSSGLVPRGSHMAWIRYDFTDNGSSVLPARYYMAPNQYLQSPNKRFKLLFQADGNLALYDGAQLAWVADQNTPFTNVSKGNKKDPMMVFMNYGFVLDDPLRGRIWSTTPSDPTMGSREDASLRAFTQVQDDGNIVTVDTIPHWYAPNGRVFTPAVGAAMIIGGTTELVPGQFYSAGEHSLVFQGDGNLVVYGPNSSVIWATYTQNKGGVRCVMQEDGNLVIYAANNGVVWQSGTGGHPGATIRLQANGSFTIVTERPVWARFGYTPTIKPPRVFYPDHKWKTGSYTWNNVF	-0.494

As a next step, examine the binder that follows.
State the recorded glycan array binding signal (z-score) for this entry: Gal 7 (Homo sapiens) (protein) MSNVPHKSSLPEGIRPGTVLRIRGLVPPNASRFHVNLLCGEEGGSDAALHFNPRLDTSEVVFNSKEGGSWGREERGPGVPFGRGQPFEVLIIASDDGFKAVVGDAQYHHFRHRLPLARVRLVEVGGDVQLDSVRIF
2.04
